target: T1, PD-1 molecule (refolded, purified and biotinylated PD-1 of Example 2) (UniProt Q15116 33-150, biotinylated with BirA enzyme (site not stated)); assay: SPR (BIAcore T200), single-cycle kinetics; biotinylated PD-1 captured via streptavidin, PDL-1 variant in solution
T1 construct: also called Programmed Death-1
T1 sequence (Q15116 33-150 limits assumed): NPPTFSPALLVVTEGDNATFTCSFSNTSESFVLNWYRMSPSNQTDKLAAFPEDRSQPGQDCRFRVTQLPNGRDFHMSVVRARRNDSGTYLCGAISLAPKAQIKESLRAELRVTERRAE
Readout Label: kon (M⁻¹ s⁻¹)

[[record]]
binder = "high affinity PDL-1 molecule L3C7c (ligand) WTVTVPKDLYVVEYGSNMTIECKFPVEKQLDLAALEVHWFMEDKNIFSFVHGEEDLKVQHSSYRQRARLLKDQLSLGNAALQITDVKLQDAGVYTCLIGYKGADYKRITVKVNAPYNKINQRILVVDPVTSEHELTCQAEGYPKAEVIWTSSDHQVLSGKTTTTNSKREEKLFNVTSTLRINTTTNEIFYCTFRRLDPEENHTAELVIPEL"
value_unit = "M⁻¹ s⁻¹"
observed = 147000

[[record]]
binder = "high affinity PDL-1 molecule L2D7 (ligand) FTVTVPKDLYVVEYGSNMTIECKFPVEKQLDLAALEVHWFMEDKNILSFVHGEEDLKVQHSSYRQRARLLKDQLSLGNAALQITDVKLQDAGVYRCMISYGGADYKRITVKVNAPYNKINQRILVVDPVTSEHELTCQAEGYPKAEVIWTSSDHQVLSGKTTTTNSKREEKLFNVTSTLRINTTTNEIFYCTFRRLDPEENHTAELVIPEL"
value_unit = "M⁻¹ s⁻¹"
observed = 11300

